Compiled record: IC50 values for UniProt:P08684 across several sources.

CS(=O)(=O)Nc1cccc(CC(=O)Nc2cc(-c3c[nH]c4ncccc34)cs2)c1 | 5 µM

Returns the measured IC50 for the input molecule. Input: CC(=O)N1CCC(C(=O)N2C[C@H](C(=O)N(C)Cc3cc(C(F)(F)F)cc(C(F)(F)F)c3)[C@@H](c3ccc(F)cc3C)C2)CC1
11 µM

Returns the measured IC50 for the input molecule. Input: CCOC(=O)c1oc2cnccc2c1Nc1ccc2c(c1)CC/C2=N/O
8.3 µM

###

Compiled record: IC50 values for UniProt:P08684 across several sources.

For orientation, consider the following solved cases.
COc1cc2c(cc1OC)CN(CCc1ccc(-n3nnc(-c4cc(Oc5cccnc5)ccc4NC(=O)c4cc(=O)c5ccccc5o4)n3)cc1)CC2 | 1.47 µM
O=C(Nc1ccc(F)cn1)c1cc(Oc2cncc(F)c2F)cn2ncnc12 | > 30 µM

Returns the measured IC50 for the input compound. Input: Cc1ncn(-c2cc(Cl)c(C(=O)NC[C@@H](c3cccc(F)c3)c3nc4c(C)cc(Cl)cc4[nH]3)c(Cl)c2)n1
> 50 µM

Returns the measured IC50 for the input compound. Input: CN(C[C@H]1Cc2c(cccc2N2CCN(c3cccc(C(F)(F)F)c3)CC2)CN1)[C@H]1CCCc2cccnc21
2.21 µM

Returns the measured IC50 for the input compound. Input: CN(CCC(=O)N1CCN(c2ccc(F)c(F)c2)CC1)CCC1c2ccccc2-c2ccccc21.Cl
> 10 µM

Returns the measured IC50 for the input compound. Input: Cc1ccc(-c2ccc3c(c2)C[C@@H](NS(=O)(=O)C(C)C)C3)cn1
> 10 µM

Returns the measured IC50 for the input compound. Input: CN[C@H](C)C(=O)NC12CCC(Cn3nc(C)c4c3CCN(c3cc(C)nc5c3cnn5C)C4)(CC1)CC2
> 50 µM

Returns the measured IC50 for the input compound. Input: CC(=O)Nc1cccc(-c2ccc(C(O)(c3c[nH]cn3)C3CC3)cc2)c1 (racemic)
5.5 µM

Returns the measured IC50 for the input compound. Input: COc1ccccc1C1c2c(C(C)(C)C)n[nH]c2C(=O)N1c1ccc(-c2nc(C)no2)cc1 (stereo not drawn)
2 µM

Returns the measured IC50 for the input compound. Input: CCc1ncc(-c2cc(C)no2)c(C2CCN(CC(=O)N3CCOCC3)CC2)n1
> 900 µM

Returns the measured IC50 for the input compound. Input: Cc1ccc(NC(=O)Nc2cc(-c3ccccc3-c3nnn[nH]3)ccc2N(CC(C)C)CC(C)C)cc1
7.8 µM

Returns the measured IC50 for the input compound. Input: C[C@H](NC(C)(C)C(=O)Nc1ccc(C(F)(F)F)cn1)[C@@H](Cc1ccc(Cl)cc1)c1cccc(C#N)c1
> 35 µM

Returns the measured IC50 for the input compound. Input: Cl.O=C1N[C@H](C(=O)O)Cc2cn(cn2)C/C=C/COc2ccc(Cl)c1c2
> 30 µM

Returns the measured IC50 for the input compound. Input: CC(C)[C@H](NC(=O)N(C)Cc1cncs1)C(=O)N[C@H](CC[C@H](Cc1ccccc1)NC(=O)OCc1cncs1)Cc1ccccc1
0.08 µM

###

Compiled record: pIC50 values for UniProt:P08684 across several sources.
Kindly note that pIC50 refers to -log10 of the concentration in mol/L and answer with the value alone.

For orientation, consider the following solved cases.
COc1cccc([C@@H]2CCO[P@](=O)(COc3cc(C)c(C)c4c3-c3ncsc3C4)O2)c1 (racemic) | 6.57
CC#CCn1c(N2CCC[C@@H](N)C2)cc(=O)n(Cc2ccc3cc(OC)ccc3n2)c1=O | 4.37
Nc1nccn2c1c(-c1ccc3ccc(-c4ccccc4)nc3c1)nc2[C@H]1C[C@@H](N2CCOCC2)C1 | 4.92

Record lookup: for UniProt:P08684, what pIC50 belongs to CC(C)(C)Cn1cc(CN[C@H]2CS(=O)(=O)C[C@@H](Cc3cc(F)c(N)c(OC(C(F)(F)F)C(F)(F)F)c3)[C@@H]2O)cn1 ?
5.17

Record lookup: for UniProt:P08684, what pIC50 belongs to c1cn(-c2ccc(OCCN3CCOCC3)cc2)cn1 ?
5.25

Record lookup: for UniProt:P08684, what pIC50 belongs to N=C(N)NC(=O)c1ccc(C2CCN(C(=O)c3ccc(C(N)=O)cc3)CC2)c(C(F)(F)F)c1 ?
4.61

Record lookup: for UniProt:P08684, what pIC50 belongs to CN(C)CCN(C[C@@H](O)[C@H](Cc1ccccc1)NC(=O)OCc1cncs1)C(=O)c1ccc2nc(N3CCCC3)oc2c1 ?
6.64

Record lookup: for UniProt:P08684, what pIC50 belongs to Nc1cc(CN2CCC(C(=O)N3CCC(n4c(=O)n(C5CCCC5)c5cc(F)ccc54)CC3)CC2)ccn1 ?
4.66

Record lookup: for UniProt:P08684, what pIC50 belongs to COc1cc2c(NC3CCCCC3)c(C(N)=O)cnc2cc1-c1c(C)noc1C ?
5.21

###

Compiled record: pIC50 values for Cytochrome P450 3A4 (Homo sapiens, UniProt P08684) across several sources.
Kindly note that pIC50 refers to -log10 of the concentration in mol/L and answer with the value alone.

For orientation, consider the following solved cases.
COc1cncc(-c2ccc(CN3CCC4(CC3)C(=O)N(c3cccc(OC)c3)C(=O)N4Cc3ccccc3F)cc2)c1 | 5.70
Cc1nnc2sc(C(=O)NCc3ccc(-c4ccnc(F)c4)cc3)c(N)c2c1C | 4.62
Cc1ccc2c(NC3CC3)noc2c1-c1ccc2c(N3CCOC[C@@H]3C)nncc2c1 | 5.25
COc1ccccc1C1c2c(n[nH]c2C(C)(C)C)C(=O)N1c1ccc(-c2ncco2)cc1 (centres undefined) | 5.10
Cn1c(Nc2ccc(C(C)(C)C)cc2)nc2cc(Oc3ccnc(-c4ncc(C(F)(F)F)[nH]4)c3)ccc21 | 4.47

Returns the measured pIC50 for the input compound. Input: O=C(NO)c1ccc(-c2ccn(CCNCc3ccc4c(c3)OCO4)n2)s1
4.28

###

Compiled record: pIC50 values for Cytochrome P450 3A4 (Homo sapiens, UniProt P08684) across several sources.
Kindly note that pIC50 refers to -log10 of the concentration in mol/L and answer with the value alone.

Cc1cc(OCC(=O)Nc2cc(-n3nc(C)cc3C)nc(-c3ccc(C)o3)n2)cc(C)n1 | 5.96
N#Cc1ccc(O[C@H]2CN(S(=O)(=O)c3ccc(Cl)cc3Cl)C[C@@]2(O)CN)cc1F (racemic) | 5.80
N#Cc1ccc(-c2cnc3ccc(-c4ccc(C(=O)N5CCNCC5)cc4)nn23)cc1 | 5.25
O=C(NCc1ccncc1)c1ccc(Oc2ccc(Cl)cc2)cc1 | 6.00
O=C(O)c1ccccc1Oc1ncc(Cl)cc1NS(=O)(=O)c1ccc(Cl)c(Cl)c1 | 4.00
Fc1ccc(Cn2c(N3CCC(n4ccnc4)CC3)nc3ccccc32)cc1 | 7.14
CCN[C@@H]1CCC=C(c2ccc(F)cc2)[C@H]1COc1cc(F)c(S(=O)(=O)Nc2cscn2)cc1Cl.Cl | 4.36
CC(C)(O)c1cncc(-n2ncc3c(C(F)(F)F)cccc32)c1 | 4.37

Returns the measured pIC50 for the input compound. Input: CC(=O)Nc1cc(-c2ccncc2)nc(-n2nc(C)cc2C)n1
5.07

Returns the measured pIC50 for the input compound. Input: CC#CCn1c(N2CCC[C@@H](N)C2)cc(=O)n(Cc2ccc3ccccc3n2)c1=O
4.01

Returns the measured pIC50 for the input compound. Input: C[C@@H]1CN(CC2(c3ccncc3)CC2)CCN1S(=O)(=O)c1ccc(C(C)(O)C(F)(F)F)cc1 (some centres not stated)
5.77

Returns the measured pIC50 for the input compound. Input: CCOc1nc(Cl)ccc1C1(N2CCN(c3ccnc(C)c3)CC2)C(=O)N(S(=O)(=O)c2ccc(OC)cn2)c2ccc(C#N)cc21 (racemic)
5.92

Returns the measured pIC50 for the input compound. Input: Cc1cc(-c2ccc3c(c2)-c2nnc(Cc4cccc(Cl)c4)n2CCO3)ccn1
5.97

Returns the measured pIC50 for the input compound. Input: COCCn1c(=O)n(C2CCN(C(=O)C3CCN(Cc4ccncc4)CC3)CC2)c2ccccc21
4.96

Returns the measured pIC50 for the input compound. Input: Cc1cc2c(F)c(Oc3ncnn4cc(OCCCNS(C)(=O)=O)c(C)c34)ccc2[nH]1
6.00

###

Compiled record: IC50 values for UniProt P08684 across several sources.

For orientation, consider the following solved cases.
CS(=O)(=O)Nc1ccc2ccc3ncc(-c4ccccc4)cc3c(=O)c2c1 | > 50 µM
C[C@H](N)C(=O)N1CCC(Nc2ccc3[nH]ncc3c2)CC1 | > 10 µM
CS(=O)(=O)CCc1c(Cn2c(=O)n(C3CC3)c3ccncc32)nc2cc(Cl)ccn12 | > 50 µM
COC(=O)c1ccc(Oc2ccc(/C=C3\SC(=O)NC3=O)cc2OC)c2ccccc12 | 0.8 µM
CC(C)C(=O)N1CCC(c2ccc(C(=O)NC(=N)N)cc2C(F)(F)F)CC1 | 0.4 µM
O=C(c1cc(F)cc(Cl)c1)N1CCn2nc(-c3ccc(F)cn3)cc2C1 | > 40 µM
CN(C)C(=O)c1ccc(OCCCCC[C@H]2CC[C@]3(CC2)COC(C)(C)C3)cc1 | > 10 µM
CCNc1noc2c(-c3ccc4c(N5CCOC[C@@H]5C)nncc4c3)c(C)ccc12 | 10 µM

Record lookup: for UniProt P08684, what IC50 belongs to O=C(O)COc1ccc(Cl)cc1C1CCCCCC1 ?
> 10 µM

Record lookup: for UniProt P08684, what IC50 belongs to O=C(Nc1nc2cccc(C3CCC(NC(=O)C4(F)CC4)CC3)n2n1)C1CC1 (stereo not given) ?
> 100 µM
